- system under test: Dual specificity tyrosine-phosphorylation-regulated kinase 1A (Homo sapiens)
- experimental parameters: at 1 µM
- Description: GSK_PKIS: DYRK1A mean inhibition at 1 uM [Nanosyn]
Label Y when inhibition is at or above 70%; otherwise label N.

record smiles	assigned label
COc1cccc(-n2ncc3c(N/N=C/c4ccncc4)ncnc32)c1	Y
NS(=O)(=O)c1ccc(N/C=C2\C(=O)Nc3ccc4ncsc4c32)cc1	Y
Nc1nonc1-c1nc2cnccc2n1C1CCCCC1	Y
CCn1c(-c2nonc2N)nc2c(C#CC(C)(C)O)nc(O[C@@H](CN)c3ccccc3)cc21	N
COc1cccc(COc2cc(-n3cnc4ccccc43)sc2C(N)=O)c1	N
COc1cc2c(cc1Nc1nc(Nc3ccsc3C(N)=O)c3cc[nH]c3n1)N(C(=O)CN(C)C)CCC2	N
CCn1c(-c2nonc2N)nc2c(C#CC(C)(C)O)ncc(OCC3CCNCC3)c21	N

----------
- system under test: Tyrosine-protein kinase Mer (Homo sapiens);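 also: values are mean inhibition of human MER kinase, from the GSK PKIS profiling panel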
- experimental parameters: at 1 µM

record smiles	unit of measure	inhibition
COc1cccc(-n2ncc3c(N/N=C/c4ccncc4)ncnc32)c1	%	39.2
Cc1cc(-c2ccco2)cc(C)c1/C=C/c1cncc(-c2nn[nH]n2)c1	%	3.44
NC(=O)c1sc(-n2cnc3cc(C(F)(F)F)ccc32)cc1OCc1ccccc1Br	%	4.52
NS(=O)(=O)c1ccc(-c2ccc3c(NC(=O)C4CC4)n[nH]c3c2)cc1	%	4.26
CCn1c(-c2nonc2N)nc2c(C#CC(C)(C)O)nc(O[C@@H](CN)c3ccccc3)cc21	%	0.57

----------
inhibition values, listed per item
- system under test: Rho-associated protein kinase 2 (Homo sapiens) (UniProt O75116);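 also: values are averaged inhibition readings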
- experimental parameters: at 0.1 µM

record smiles	inhibition / %
CCn1c(-c2nonc2N)nc2c(C#CC(C)(C)O)ncc(OCC3CCNCC3)c21	6.21
COc1cccc(-n2ncc3c(N/N=C/c4ccncc4)ncnc32)c1	4.97
COc1cccc(COc2cc(-n3cnc4ccccc43)sc2C(N)=O)c1	-0.06
COc1cc2c(cc1Nc1nc(Nc3ccsc3C(N)=O)c3cc[nH]c3n1)N(C(=O)CN(C)C)CCC2	3.13
COc1cc(C=NNc2ncnc3c2cnn3Cc2ccccc2)ccc1O	-0.21
Fc1ccc(-c2ncn(C3CCNCC3)c2-c2ccnc(Oc3ccccc3)n2)cc1	-0.24
CCn1c(-c2nonc2N)nc2c(C#CCN)ncc(OCCCN)c21	10.6
NC(=O)c1sc(-n2cnc3cc(C(F)(F)F)ccc32)cc1OCc1ccccc1Br	0.92

----------
inhibition values, listed per item
- system under test: Vascular endothelial growth factor receptor 1 (Homo sapiens) (UniProt P17948);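 also: values are mean percent inhibition of FLT1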
- experimental parameters: at 0.1 µM

record smiles	system under test	inhibition / %
Fc1ccc(-c2ncn(C3CCNCC3)c2-c2ccnc(Oc3ccccc3)n2)cc1	Vascular endothelial growth factor receptor 1 (Homo sapiens) (UniProt P17948)	1.35
CCn1c(-c2nonc2N)nc2c(C#CCN)ncc(OCCCN)c21	Vascular endothelial growth factor receptor 1 (Homo sapiens) (UniProt P17948)	0.25
NC(=O)c1sc(-n2cnc3cc(C(F)(F)F)ccc32)cc1OCc1ccccc1Br	Vascular endothelial growth factor receptor 1 (Homo sapiens) (UniProt P17948)	-0.46
Nc1nonc1-c1nc2cnccc2n1C1CCCCC1	Vascular endothelial growth factor receptor 1 (Homo sapiens) (UniProt P17948)	-1
Cc1cc(-c2ccco2)cc(C)c1/C=C/c1cncc(-c2nn[nH]n2)c1	Vascular endothelial growth factor receptor 1 (Homo sapiens) (UniProt P17948)	-0.74
CCn1c(-c2nonc2N)nc2c(C#CC(C)(C)O)ncc(OCC3CCNCC3)c21	Vascular endothelial growth factor receptor 1 (Homo sapiens) (UniProt P17948)	2.92
COc1cccc(-n2ncc3c(N/N=C/c4ccncc4)ncnc32)c1	Vascular endothelial growth factor receptor 1 (Homo sapiens) (UniProt P17948)	1.64
CCn1c(-c2nonc2N)nc2c(C#CC(C)(C)O)ncc(OC[C@@H]3CCCN3)c21	Vascular endothelial growth factor receptor 1 (Homo sapiens) (UniProt P17948)	1.39
COc1cc2c(cc1Nc1nc(Nc3ccsc3C(N)=O)c3cc[nH]c3n1)N(C(=O)CN(C)C)CCC2	Vascular endothelial growth factor receptor 1 (Homo sapiens) (UniProt P17948)	-1.61
CCn1c(-c2nonc2N)nc2c(C#CC(C)(C)O)nc(O[C@@H](CN)c3ccccc3)cc21	Vascular endothelial growth factor receptor 1 (Homo sapiens) (UniProt P17948)	36.1
NS(=O)(=O)c1ccc(N/C=C2\C(=O)Nc3ccc4ncsc4c32)cc1	Vascular endothelial growth factor receptor 1 (Homo sapiens) (UniProt P17948)	7.41

----------
- system under test: Tyrosine-protein kinase Blk (Homo sapiens) (UniProt P51451);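 also: reported value is the mean percent inhibition of BLK kinase activity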
- Sequence (P51451 2-505 limits assumed): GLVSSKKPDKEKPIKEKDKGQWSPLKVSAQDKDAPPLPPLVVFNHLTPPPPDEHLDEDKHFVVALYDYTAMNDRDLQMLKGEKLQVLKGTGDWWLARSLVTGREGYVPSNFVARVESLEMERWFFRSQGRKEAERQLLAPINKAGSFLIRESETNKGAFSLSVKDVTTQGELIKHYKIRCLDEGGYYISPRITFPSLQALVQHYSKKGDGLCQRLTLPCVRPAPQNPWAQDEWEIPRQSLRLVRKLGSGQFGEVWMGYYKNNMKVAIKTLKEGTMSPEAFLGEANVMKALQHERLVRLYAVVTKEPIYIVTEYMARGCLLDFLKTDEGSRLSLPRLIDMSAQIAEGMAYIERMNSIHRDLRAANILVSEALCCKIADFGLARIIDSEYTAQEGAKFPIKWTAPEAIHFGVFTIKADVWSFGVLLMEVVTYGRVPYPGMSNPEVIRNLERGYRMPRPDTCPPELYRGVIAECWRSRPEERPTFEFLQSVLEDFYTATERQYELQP
- experimental parameters: at 0.1 µM
inhibition values, listed per item
value kind: inhibition (%)

record smiles	meas value
COc1cccc(COc2cc(-n3cnc4ccccc43)sc2C(N)=O)c1	0.3
COc1cc2c(cc1Nc1nc(Nc3ccsc3C(N)=O)c3cc[nH]c3n1)N(C(=O)CN(C)C)CCC2	7.36
Fc1ccc(-c2ncn(C3CCNCC3)c2-c2ccnc(Oc3ccccc3)n2)cc1	-3.23
NS(=O)(=O)c1ccc(N/C=C2\C(=O)Nc3ccc4ncsc4c32)cc1	5.86
COc1cc(C=NNc2ncnc3c2cnn3Cc2ccccc2)ccc1O	0.65
Cc1cc(-c2ccco2)cc(C)c1/C=C/c1cncc(-c2nn[nH]n2)c1	1.51

----------
inhibition values, listed per item
- system under test: Ribosomal protein S6 kinase alpha-2 (Homo sapiens) (UniProt Q15349);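 also: value is the mean inhibition of RSK3 within GSK PKIS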
- Sequence (Q15349 whole entry): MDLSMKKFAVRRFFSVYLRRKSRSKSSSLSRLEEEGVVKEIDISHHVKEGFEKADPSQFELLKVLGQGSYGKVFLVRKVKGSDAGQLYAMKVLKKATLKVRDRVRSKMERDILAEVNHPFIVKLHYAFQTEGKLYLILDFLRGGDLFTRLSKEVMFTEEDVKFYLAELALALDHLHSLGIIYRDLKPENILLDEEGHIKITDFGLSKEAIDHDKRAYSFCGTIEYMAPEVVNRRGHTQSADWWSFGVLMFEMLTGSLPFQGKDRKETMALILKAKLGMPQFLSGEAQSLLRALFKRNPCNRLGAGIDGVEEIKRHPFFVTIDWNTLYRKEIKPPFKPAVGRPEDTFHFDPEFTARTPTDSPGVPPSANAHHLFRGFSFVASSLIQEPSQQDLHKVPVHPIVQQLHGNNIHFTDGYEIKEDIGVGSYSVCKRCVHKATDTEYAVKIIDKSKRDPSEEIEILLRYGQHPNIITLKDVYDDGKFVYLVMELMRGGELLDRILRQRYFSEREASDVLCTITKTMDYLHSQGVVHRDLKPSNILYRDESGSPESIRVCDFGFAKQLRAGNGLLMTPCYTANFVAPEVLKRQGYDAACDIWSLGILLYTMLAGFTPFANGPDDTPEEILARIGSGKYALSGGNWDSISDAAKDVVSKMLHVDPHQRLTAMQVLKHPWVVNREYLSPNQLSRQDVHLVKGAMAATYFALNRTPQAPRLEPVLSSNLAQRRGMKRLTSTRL
- experimental parameters: at 1 µM

record smiles	inhibition (%)
Cc1cc(-c2ccco2)cc(C)c1/C=C/c1cncc(-c2nn[nH]n2)c1	0.92
Nc1nonc1-c1nc2cnccc2n1C1CCCCC1	92.6
CCn1c(-c2nonc2N)nc2c(C#CC(C)(C)O)nc(O[C@@H](CN)c3ccccc3)cc21	69.9
CCn1c(-c2nonc2N)nc2c(C#CCN)ncc(OCCCN)c21	48.5
Fc1ccc(-c2ncn(C3CCNCC3)c2-c2ccnc(Oc3ccccc3)n2)cc1	0.51

----------
inhibition values, listed per item
- Test system: Leucine-rich repeat serine/threonine-protein kinase 2 (Homo sapiens), Q5S007 [G2019S]
- Sequence (Q5S007 whole entry G2019S): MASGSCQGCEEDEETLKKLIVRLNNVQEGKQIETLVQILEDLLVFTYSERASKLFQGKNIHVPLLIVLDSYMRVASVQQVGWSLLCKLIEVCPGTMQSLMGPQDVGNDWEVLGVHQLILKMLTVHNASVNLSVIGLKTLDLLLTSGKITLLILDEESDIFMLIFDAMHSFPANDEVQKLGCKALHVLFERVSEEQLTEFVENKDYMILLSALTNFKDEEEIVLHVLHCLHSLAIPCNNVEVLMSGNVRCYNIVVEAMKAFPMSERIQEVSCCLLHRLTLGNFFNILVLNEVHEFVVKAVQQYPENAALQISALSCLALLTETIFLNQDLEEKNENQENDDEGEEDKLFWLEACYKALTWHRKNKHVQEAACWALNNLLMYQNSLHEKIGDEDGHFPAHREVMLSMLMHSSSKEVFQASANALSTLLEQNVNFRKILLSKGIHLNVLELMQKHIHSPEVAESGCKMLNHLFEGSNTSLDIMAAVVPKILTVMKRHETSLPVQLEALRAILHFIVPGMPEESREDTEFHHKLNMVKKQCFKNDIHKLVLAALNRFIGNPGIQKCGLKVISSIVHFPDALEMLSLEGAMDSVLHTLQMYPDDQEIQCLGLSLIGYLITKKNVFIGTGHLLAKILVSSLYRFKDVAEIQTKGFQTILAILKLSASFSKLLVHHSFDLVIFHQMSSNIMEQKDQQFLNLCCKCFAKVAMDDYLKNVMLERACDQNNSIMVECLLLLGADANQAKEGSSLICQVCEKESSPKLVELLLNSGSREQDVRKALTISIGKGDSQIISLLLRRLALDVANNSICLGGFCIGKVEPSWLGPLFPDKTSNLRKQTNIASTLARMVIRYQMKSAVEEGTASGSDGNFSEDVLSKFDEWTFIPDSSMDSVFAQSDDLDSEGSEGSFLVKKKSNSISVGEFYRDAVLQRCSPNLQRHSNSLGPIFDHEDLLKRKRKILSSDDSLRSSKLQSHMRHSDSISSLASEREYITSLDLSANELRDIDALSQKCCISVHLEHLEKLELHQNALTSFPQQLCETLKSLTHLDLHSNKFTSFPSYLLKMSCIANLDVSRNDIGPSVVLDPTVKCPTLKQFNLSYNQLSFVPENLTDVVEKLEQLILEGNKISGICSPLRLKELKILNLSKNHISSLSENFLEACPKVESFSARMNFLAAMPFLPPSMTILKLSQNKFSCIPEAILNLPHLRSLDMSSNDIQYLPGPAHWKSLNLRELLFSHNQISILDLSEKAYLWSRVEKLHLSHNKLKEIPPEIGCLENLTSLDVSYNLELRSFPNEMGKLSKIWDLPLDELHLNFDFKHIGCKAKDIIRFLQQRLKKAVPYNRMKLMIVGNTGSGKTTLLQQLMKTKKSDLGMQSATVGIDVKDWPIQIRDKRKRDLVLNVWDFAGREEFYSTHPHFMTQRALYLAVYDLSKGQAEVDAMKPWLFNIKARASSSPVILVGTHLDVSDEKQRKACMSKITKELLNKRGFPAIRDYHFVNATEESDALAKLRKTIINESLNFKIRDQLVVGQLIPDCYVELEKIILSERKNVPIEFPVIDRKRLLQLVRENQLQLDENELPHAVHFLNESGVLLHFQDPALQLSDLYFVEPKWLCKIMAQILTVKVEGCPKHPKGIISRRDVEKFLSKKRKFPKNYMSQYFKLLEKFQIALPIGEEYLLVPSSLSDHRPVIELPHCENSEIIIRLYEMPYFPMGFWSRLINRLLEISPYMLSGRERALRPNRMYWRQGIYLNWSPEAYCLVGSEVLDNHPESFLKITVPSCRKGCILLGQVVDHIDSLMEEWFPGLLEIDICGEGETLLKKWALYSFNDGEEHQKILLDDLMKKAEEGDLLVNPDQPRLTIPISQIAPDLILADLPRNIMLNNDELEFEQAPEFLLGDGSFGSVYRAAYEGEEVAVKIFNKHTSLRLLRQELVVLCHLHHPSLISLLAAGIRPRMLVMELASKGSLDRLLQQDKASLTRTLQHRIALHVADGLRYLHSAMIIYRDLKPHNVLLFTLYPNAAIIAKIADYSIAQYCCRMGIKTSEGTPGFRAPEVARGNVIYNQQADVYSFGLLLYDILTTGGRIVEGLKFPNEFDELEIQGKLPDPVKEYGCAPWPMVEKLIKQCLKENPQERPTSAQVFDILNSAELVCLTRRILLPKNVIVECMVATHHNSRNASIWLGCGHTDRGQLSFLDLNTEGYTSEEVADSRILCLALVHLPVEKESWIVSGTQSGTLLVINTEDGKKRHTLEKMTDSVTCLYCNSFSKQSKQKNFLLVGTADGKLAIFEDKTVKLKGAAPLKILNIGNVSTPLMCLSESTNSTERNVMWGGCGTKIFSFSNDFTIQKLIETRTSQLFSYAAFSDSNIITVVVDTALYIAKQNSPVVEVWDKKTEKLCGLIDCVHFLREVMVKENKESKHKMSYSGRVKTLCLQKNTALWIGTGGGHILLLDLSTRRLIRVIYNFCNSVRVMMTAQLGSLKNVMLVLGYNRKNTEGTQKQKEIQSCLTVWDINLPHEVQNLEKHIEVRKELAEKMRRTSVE
- experimental parameters: at 1 µM
value kind: inhibition (%)

record smiles	value kind	meas value
CCn1c(-c2nonc2N)nc2c(C#CC(C)(C)O)ncc(OCC3CCNCC3)c21	inhibition	16.7
Fc1ccc(-c2ncn(C3CCNCC3)c2-c2ccnc(Oc3ccccc3)n2)cc1	inhibition	-0.98
Cc1cc(-c2ccco2)cc(C)c1/C=C/c1cncc(-c2nn[nH]n2)c1	inhibition	5.78
CCn1c(-c2nonc2N)nc2c(C#CC(C)(C)O)nc(O[C@@H](CN)c3ccccc3)cc21	inhibition	35.9

----------
- system under test: Ribosomal protein S6 kinase alpha-5 (Homo sapiens);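 also: mean inhibition of MSK1 reported, from a GSK PKIS inhibitor set screen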
- experimental parameters: at 0.1 µM
inhibition values, listed per item
value kind: inhibition (%)

record smiles	unit of measure	meas value
CCn1c(-c2nonc2N)nc2c(C#CC(C)(C)O)ncc(OCC3CCNCC3)c21	%	2.98
COc1cc(C=NNc2ncnc3c2cnn3Cc2ccccc2)ccc1O	%	2.29
COc1cc2c(cc1Nc1nc(Nc3ccsc3C(N)=O)c3cc[nH]c3n1)N(C(=O)CN(C)C)CCC2	%	2.59
COc1cccc(-n2ncc3c(N/N=C/c4ccncc4)ncnc32)c1	%	3.86
Nc1nonc1-c1nc2cnccc2n1C1CCCCC1	%	76.5
Fc1ccc(-c2ncn(C3CCNCC3)c2-c2ccnc(Oc3ccccc3)n2)cc1	%	-1.31
Cc1cc(-c2ccco2)cc(C)c1/C=C/c1cncc(-c2nn[nH]n2)c1	%	-0.62
NS(=O)(=O)c1ccc(-c2ccc3c(NC(=O)C4CC4)n[nH]c3c2)cc1	%	3.18

----------
- system under test: Phosphorylase b kinase gamma catalytic chain, skeletal muscle/heart isoform (Homo sapiens) (UniProt Q16816);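 also: each value is a mean percent inhibition of PHKG1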
- Sequence (Q16816 whole entry, looked up, canonical isoform): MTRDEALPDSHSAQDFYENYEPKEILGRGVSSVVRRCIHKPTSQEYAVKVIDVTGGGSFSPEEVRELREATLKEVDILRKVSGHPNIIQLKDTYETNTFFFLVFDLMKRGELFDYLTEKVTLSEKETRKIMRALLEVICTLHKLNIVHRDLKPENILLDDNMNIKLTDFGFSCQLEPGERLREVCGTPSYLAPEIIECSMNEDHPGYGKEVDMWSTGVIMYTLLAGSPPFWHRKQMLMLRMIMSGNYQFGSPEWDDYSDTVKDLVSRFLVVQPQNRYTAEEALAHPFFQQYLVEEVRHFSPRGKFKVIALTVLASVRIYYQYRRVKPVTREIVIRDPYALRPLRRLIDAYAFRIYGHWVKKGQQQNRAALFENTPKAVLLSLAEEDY
- experimental parameters: at 1 µM
value kind: inhibition (%)

record smiles	meas value
COc1cc(C=NNc2ncnc3c2cnn3Cc2ccccc2)ccc1O	2.64
Nc1nonc1-c1nc2cnccc2n1C1CCCCC1	8.25
NC(=O)c1sc(-n2cnc3cc(C(F)(F)F)ccc32)cc1OCc1ccccc1Br	5.87
COc1cc2c(cc1Nc1nc(Nc3ccsc3C(N)=O)c3cc[nH]c3n1)N(C(=O)CN(C)C)CCC2	41.3
CCn1c(-c2nonc2N)nc2c(C#CC(C)(C)O)ncc(OCC3CCNCC3)c21	9.61
CCn1c(-c2nonc2N)nc2c(C#CC(C)(C)O)ncc(OC[C@@H]3CCCN3)c21	2.21
CCn1c(-c2nonc2N)nc2c(C#CC(C)(C)O)nc(O[C@@H](CN)c3ccccc3)cc21	12.3

----------
- system under test: Phosphorylase b kinase gamma catalytic chain, liver/testis isoform (Homo sapiens) (UniProt P15735);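 also: values are mean inhibition of PHKG2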
- Sequence (P15735 whole entry, canonical isoform): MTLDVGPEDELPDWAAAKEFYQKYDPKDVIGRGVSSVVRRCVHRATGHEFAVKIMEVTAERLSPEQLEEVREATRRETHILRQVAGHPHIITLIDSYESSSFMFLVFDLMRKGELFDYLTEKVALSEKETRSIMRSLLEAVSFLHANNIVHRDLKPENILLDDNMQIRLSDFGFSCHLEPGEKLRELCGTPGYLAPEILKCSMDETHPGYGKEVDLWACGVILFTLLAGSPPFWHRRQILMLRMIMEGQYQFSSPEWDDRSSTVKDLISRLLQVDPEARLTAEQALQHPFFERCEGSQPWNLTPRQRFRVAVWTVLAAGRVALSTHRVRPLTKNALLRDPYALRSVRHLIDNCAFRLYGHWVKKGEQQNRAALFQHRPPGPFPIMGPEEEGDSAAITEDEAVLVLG
- experimental parameters: at 0.1 µM

record smiles	inhibition / %
Nc1nonc1-c1nc2cnccc2n1C1CCCCC1	-4.48
COc1cc(C=NNc2ncnc3c2cnn3Cc2ccccc2)ccc1O	-7.11
NC(=O)c1sc(-n2cnc3cc(C(F)(F)F)ccc32)cc1OCc1ccccc1Br	2.5
CCn1c(-c2nonc2N)nc2c(C#CC(C)(C)O)nc(O[C@@H](CN)c3ccccc3)cc21	-3.09
NS(=O)(=O)c1ccc(-c2ccc3c(NC(=O)C4CC4)n[nH]c3c2)cc1	2.77
CCn1c(-c2nonc2N)nc2c(C#CCN)ncc(OCCCN)c21	-1.7
CCn1c(-c2nonc2N)nc2c(C#CC(C)(C)O)ncc(OCC3CCNCC3)c21	4.03
